Assay: Single-dose pharmacokinetics in healthy volunteers under fasting and fed (high-fat breakfast) conditions, plasma concentrations by HPLC-MS, non-compartmental analysis
Format: in vivo, human
Details: male, human, plasma, po, Fed, men, single oral dose, mean ± SD
Method: The bioequivalence clinical trials were phase I, randomized, open-label, crossover, single-centre, with two periods separated by a 7-day washout stage. Subjects were randomised to one of the two treatment sequences, RT or TR where R was the reference formulation and T was the test formulation. […] Sample processing, genotyping for CYP2C19 and drug quantification were performed according to Román et al. […] The values of pharmacokinetic parameters were expressed as mean ± standard deviation.
Documented Vd/F across a set of compounds
experimental.readout: Vd/F (L/kg)

compound: COc1ccnc(C[S+]([O-])c2nc3ccc(OC(F)F)cc3[nH]2)c1OC (stereo not drawn)
readout.value: 0.25
//
compound: COc1ccc2[nH]c([S+]([O-])Cc3ncc(C)c(OC)c3C)nc2c1 (stereo not drawn)
readout.value: 0.75
//
compound: COCCCOc1ccnc(C[S+]([O-])c2nc3ccccc3[nH]2)c1C (stereo not drawn)
readout.value: 0.91

###

Assay: Single-dose pharmacokinetics in healthy volunteers under fasting and fed (high-fat breakfast) conditions, plasma concentrations by HPLC-MS, non-compartmental analysis
Assay type: in vivo, human
Details: male, human, plasma, po, Fast, men, single oral dose, mean ± SD
Documented Vd/F across a set of compounds

compound: COc1ccnc(C[S+]([O-])c2nc3ccc(OC(F)F)cc3[nH]2)c1OC (stereo not drawn)
reading.unit: L/kg
Vd/F: 0.18

compound: COCCCOc1ccnc(C[S+]([O-])c2nc3ccccc3[nH]2)c1C (stereo not drawn)
reading.unit: L/kg
Vd/F: 0.55

compound: COc1ccc2[nH]c([S+]([O-])Cc3ncc(C)c(OC)c3C)nc2c1 (stereo not drawn)
reading.unit: L/kg
Vd/F: 0.65

###

Assay: Single-dose pharmacokinetics in healthy volunteers under fasting and fed (high-fat breakfast) conditions, plasma concentrations by HPLC-MS, non-compartmental analysis
Assay type: in vivo, human
Conditions: female, human, plasma, po, Fast, women, single oral dose, mean ± SD
Documented AUC(0-inf) across a set of compounds
experimental.readout: AUC(0-inf) (ng·h/mL)

compound: COCCCOc1ccnc(C[S+]([O-])c2nc3ccccc3[nH]2)c1C (stereo not drawn)
readout.value: 1120
--
compound: COc1ccnc(C[S+]([O-])c2nc3ccc(OC(F)F)cc3[nH]2)c1OC (stereo not drawn)
readout.value: 7320
--
compound: COc1ccc2[nH]c([S+]([O-])Cc3ncc(C)c(OC)c3C)nc2c1 (stereo not drawn)
readout.value: 2020

###

Assay: Single-dose pharmacokinetics in healthy volunteers under fasting and fed (high-fat breakfast) conditions, plasma concentrations by HPLC-MS, non-compartmental analysis
Assay type: in vivo, human
Details: both sexes, human, plasma, po, Fast, all subjects, single oral dose, mean ± SD
Documented Vd/F across a set of molecules

molecule: COc1ccnc(C[S+]([O-])c2nc3ccc(OC(F)F)cc3[nH]2)c1OC (stereo not drawn)
Vd/F / L/kg: 0.17

molecule: COc1ccc2[nH]c([S+]([O-])Cc3ncc(C)c(OC)c3C)nc2c1 (stereo not drawn)
Vd/F / L/kg: 0.64

molecule: COCCCOc1ccnc(C[S+]([O-])c2nc3ccccc3[nH]2)c1C (stereo not drawn)
Vd/F / L/kg: 0.6

###

Assay: Single-dose pharmacokinetics in healthy volunteers under fasting and fed (high-fat breakfast) conditions, plasma concentrations by HPLC-MS, non-compartmental analysis
Format: in vivo, human
Details: both sexes, human, plasma, po, Fast, all subjects, single oral dose, mean ± SD
Documented CL/F across a set of compounds
experimental.readout: CL/F

compound: COCCCOc1ccnc(C[S+]([O-])c2nc3ccccc3[nH]2)c1C (stereo not drawn) [Rabeprazole, rabeprazole]
experimental.readout: CL/F
readout.value: 5.83 mL/min/kg
--
compound: COc1ccnc(C[S+]([O-])c2nc3ccc(OC(F)F)cc3[nH]2)c1OC (stereo not drawn) [Pantoprazole, pantoprazole]
experimental.readout: CL/F
readout.value: 1.83 mL/min/kg
--
compound: COc1ccc2[nH]c([S+]([O-])Cc3ncc(C)c(OC)c3C)nc2c1 (stereo not drawn) [Omeprazole, omeprazole]
experimental.readout: CL/F
readout.value: 8.83 mL/min/kg

###

Assay: Single-dose pharmacokinetics in healthy volunteers under fasting and fed (high-fat breakfast) conditions, plasma concentrations by HPLC-MS, non-compartmental analysis
Assay type: in vivo, human
Settings: female, human, plasma, oral, only CYP2C19*1/*1 subjects, Fast, women, mean ± SD
experimental.readout: AUC(0-inf) (µg·h/mL)

molecule: COc1ccc2[nH]c([S+]([O-])Cc3ncc(C)c(OC)c3C)nc2c1 (stereo not drawn)
experimental.readout: AUC(0-inf)
reading.unit: µg·h/mL
readout.value: 1.98

molecule: COc1ccnc(C[S+]([O-])c2nc3ccc(OC(F)F)cc3[nH]2)c1OC (stereo not drawn)
experimental.readout: AUC(0-inf)
reading.unit: µg·h/mL
readout.value: 7.82

molecule: COCCCOc1ccnc(C[S+]([O-])c2nc3ccccc3[nH]2)c1C (stereo not drawn)
experimental.readout: AUC(0-inf)
reading.unit: µg·h/mL
readout.value: 0.932

###

Test: Single-dose pharmacokinetics in healthy volunteers under fasting and fed (high-fat breakfast) conditions, plasma concentrations by HPLC-MS, non-compartmental analysis
Assay type: in vivo, human
Conditions: male, human, plasma, po, Fed, men, single oral dose, mean ± SD; read-out: Tmax
Documented Tmax across a set of compounds

compound: COc1ccnc(C[S+]([O-])c2nc3ccc(OC(F)F)cc3[nH]2)c1OC (stereo not drawn)
Tmax: 5.6 h
//
compound: COCCCOc1ccnc(C[S+]([O-])c2nc3ccccc3[nH]2)c1C (stereo not drawn)
Tmax: 6.9 h
//
compound: COc1ccc2[nH]c([S+]([O-])Cc3ncc(C)c(OC)c3C)nc2c1 (stereo not drawn)
Tmax: 4.5 h

###

Assay: Single-dose pharmacokinetics in healthy volunteers under fasting and fed (high-fat breakfast) conditions, plasma concentrations by HPLC-MS, non-compartmental analysis
Type: in vivo, human
Conditions: both sexes, human, plasma, oral, only CYP2C19*1/*1 subjects, Fast, men and women, mean ± SD; read-out: Tmax

molecule: COc1ccc2[nH]c([S+]([O-])Cc3ncc(C)c(OC)c3C)nc2c1 (stereo not drawn)
reading.unit: h
Tmax: 1.8
//
molecule: COCCCOc1ccnc(C[S+]([O-])c2nc3ccccc3[nH]2)c1C (stereo not drawn)
reading.unit: h
Tmax: 3.9
//
molecule: COc1ccnc(C[S+]([O-])c2nc3ccc(OC(F)F)cc3[nH]2)c1OC (stereo not drawn)
reading.unit: h
Tmax: 3

###

Documented AUC(0-inf) across a set of molecules
Assay: Single-dose pharmacokinetics in healthy volunteers under fasting and fed (high-fat breakfast) conditions, plasma concentrations by HPLC-MS, non-compartmental analysis
Type: in vivo, human
Settings: both sexes, human, plasma, po, Fast, all subjects, single oral dose, mean ± SD
experimental.readout: AUC(0-inf) (ng·h/mL)

molecule: COc1ccnc(C[S+]([O-])c2nc3ccc(OC(F)F)cc3[nH]2)c1OC (stereo not drawn)
readout.value: 6950
--
molecule: COc1ccc2[nH]c([S+]([O-])Cc3ncc(C)c(OC)c3C)nc2c1 (stereo not drawn)
readout.value: 2190
--
molecule: COCCCOc1ccnc(C[S+]([O-])c2nc3ccccc3[nH]2)c1C (stereo not drawn)
readout.value: 972

###

Experiment: Single-dose pharmacokinetics in healthy volunteers under fasting and fed (high-fat breakfast) conditions, plasma concentrations by HPLC-MS, non-compartmental analysis
Assay type: in vivo, human
Settings: both sexes, human, plasma, oral, only CYP2C19*1/*1 subjects, Fast, men and women, mean ± SD; read-out: Cmax
Documented Cmax across a set of molecules

molecule: COc1ccnc(C[S+]([O-])c2nc3ccc(OC(F)F)cc3[nH]2)c1OC (stereo not drawn)
reading.unit: ng/mL
Cmax: 2540
--
molecule: COc1ccc2[nH]c([S+]([O-])Cc3ncc(C)c(OC)c3C)nc2c1 (stereo not drawn)
reading.unit: ng/mL
Cmax: 860
--
molecule: COCCCOc1ccnc(C[S+]([O-])c2nc3ccccc3[nH]2)c1C (stereo not drawn)
reading.unit: ng/mL
Cmax: 536

###

Test: Single-dose pharmacokinetics in healthy volunteers under fasting and fed (high-fat breakfast) conditions, plasma concentrations by HPLC-MS, non-compartmental analysis
Format: in vivo, human
Details: male, human, plasma, po, Fast, men, single oral dose, mean ± SD; read-out: Cmax
Documented Cmax across a set of compounds

compound: COCCCOc1ccnc(C[S+]([O-])c2nc3ccccc3[nH]2)c1C (centres unmarked)
reading.unit: ng/mL
Cmax: 479
--
compound: COc1ccnc(C[S+]([O-])c2nc3ccc(OC(F)F)cc3[nH]2)c1OC (centres unmarked)
reading.unit: ng/mL
Cmax: 2320

###

Documented Vd/F across a set of compounds
Experiment: Single-dose pharmacokinetics in healthy volunteers under fasting and fed (high-fat breakfast) conditions, plasma concentrations by HPLC-MS, non-compartmental analysis
Format: in vivo, human
Conditions: both sexes, human, plasma, oral, only CYP2C19*1/*1 subjects, Fast, men and women, mean ± SD
experimental.readout: Vd/F (L/kg)

compound: COc1ccnc(C[S+]([O-])c2nc3ccc(OC(F)F)cc3[nH]2)c1OC (stereo not drawn)
experimental.readout: Vd/F
readout.value: 0.18
--
compound: COc1ccc2[nH]c([S+]([O-])Cc3ncc(C)c(OC)c3C)nc2c1 (stereo not drawn)
experimental.readout: Vd/F
readout.value: 0.69
--
compound: COCCCOc1ccnc(C[S+]([O-])c2nc3ccccc3[nH]2)c1C (stereo not drawn)
experimental.readout: Vd/F
readout.value: 0.6
